Below, each entry is listed with its recorded INHIBITION.
System: Plasmodium berghei
Assay: Screen against P. berghei liver stage (PbLuc), transformed with Luciferase, at 2uM
Format: functional, HepG2
Settings: tested at 2 uM
Hit rate of the full screen: of about 68,000 compounds, about 2,700 (4%) showed an effect of 50% or more. The sample holds strong results, similar compounds and a random draw of the others, so the mix is not that of the screen.
Give the quantity in %, number only.

O=C(NC1CC1)c1cc(C2CCCN(Cc3ccccn3)C2)no1 (stereo unspecified) : -15.37
COC(C)(C)C(=O)N1Cc2cnc(C(C)(C)C)nc2C1 : -82.18
Cc1nn(C2CCS(=O)(=O)C2)c(O)c1Cc1ccccc1Cl (stereo unspecified) : -0.89
CCCNC(=O)c1cc(C2CCCN(Cc3ccccn3)C2)no1 (stereo unspecified) : 72.41
Cc1cnccc1N1CCN(C(=O)C2CC3(CCNCC3)CN2)CC1 (stereo unspecified) : -28.32
Cc1nc(C)c(CN2CCOC(CNc3cccnn3)C2)s1 (stereo unspecified) : -15.28
CC(=O)N1CCCN(C(=O)NCCNc2cnccn2)CC1 : 64.71
Cc1ncc(CN2CCOC(CNc3cccnn3)C2)s1 (stereo unspecified) : 58.05

Using known records, supply INHIBITION for COc1c(Br)c(C(=O)NC2CCCC2)nn1C
32.75

Using known records, supply INHIBITION for COC(=O)c1ccc(N2CCN(C(=O)c3cnn(C)c3)C(C)C2)cc1 (stereo unspecified)
47.57

Using known records, supply INHIBITION for O=C(c1cc(C2CCCN(Cc3ccccn3)C2)no1)N1CCCC1 (stereo unspecified)
39.48
